Entry source: patent US20080050810A1

# Target Under Test: anti-CC49 variable region antibodies in the serum of patient three
# Run Description: HPLC, 125I-HuCC49 + serum + 5 Tg competitor; fewer complexes = competitor bound
Property Name: percent of complexes

>>> value("HuCC49 CDR variant L-3 (antibody, V domains shown) VH: QVQLVQSGAEVVKPGASVKISCKASGYTFTDHAIHWVKQNPGQRLEWIGYFSPGNDDFKYNERFKGKATLTADTSASTAYVELSSLRSEDTAVYFCTRSLNMAYWGQGTLVTVSS VL: DIVMSQSPDSLAVSLGERVTLNCKSSQSLLYSGNQKNYLAWYQQKPGQSPKLLIYWASARESGVPDRFSGSGSGTDFTLTISSVQAEDVAVYYCQQYYSTPYSFGAGTKLELK")
"48.2%"
>>> value("HuCC49 CDR variant H-1 (antibody, V domains shown) VH: QVQLVQSGAEVVKPGASVKISCKASGYTFTSYAMHWVKQNPGQRLEWIGYFSPGNDDFKYNERFKGKATLTADTSASTAYVELSSLRSEDTAVYFCTRSLNMAYWGQGTLVTVSS VL: DIVMSQSPDSLAVSLGERVTLNCKSSQSLLYSGNQKNYLAWYQQKPGQSPKLLIYWASARESGVPDRFSGSGSGTDFTLTISSVQAEDVAVYYCQQYYSYPLTFGAGTKLELK")
"3.9%"
>>> value("HuCC49 CDR variant L-1,2 (antibody, V domains shown) VH: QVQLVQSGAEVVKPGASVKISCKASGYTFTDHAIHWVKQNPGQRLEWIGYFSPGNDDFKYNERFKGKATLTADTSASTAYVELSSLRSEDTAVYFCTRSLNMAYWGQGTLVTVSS VL: DIVMSQSPDSLAVSLGERVTLNCKSSQSVLYSSNSKNYLAWYQQKPGQSPKLLIYWASTRESGVPDRFSGSGSGTDFTLTISSVQAEDVAVYYCQQYYSYPLTFGAGTKLELK")
"24.5%"
>>> value("HuCC49 CDR variant H-2 (antibody, V domains shown) VH: QVQLVQSGAEVVKPGASVKISCKASGYTFTDHAIHWVKQNPGQRLEWIGWINAGNGNTKYSQKFQGKATLTADTSASTAYVELSSLRSEDTAVYFCTRSLNMAYWGQGTLVTVSS VL: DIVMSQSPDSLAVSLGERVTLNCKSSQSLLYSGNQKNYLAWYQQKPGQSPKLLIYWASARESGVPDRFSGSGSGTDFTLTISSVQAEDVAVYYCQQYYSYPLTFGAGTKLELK")
"32.5%"
